Assay: Phase 1 open-label parallel-group PK study of IV vasopressin in healthy volunteers by LNPEP rs4869317 genotype
Assay type: in vivo, human
Conditions: both sexes, human, plasma, iv, 200 uU/kg/min, TT genotype healthy volunteers (12 subjects), plasma, 200 μU/kg/min continuous IV infusion for 60 minutes; read-out: Css (Mean), concentration at steady state
Observation Type: level at 1 h (ng/mL)
# unit: ng/mL | format: bare number

Reported level at 1 h for NC(=O)CC[C@@H]1NC(=O)[C@H](Cc2ccccc2)NC(=O)[C@H](Cc2ccc(O)cc2)NC(=O)[C@@H](N)CSSC[C@@H](C(=O)N2CCC[C@H]2C(=O)N[C@@H](CCCN=C(N)N)C(=O)NCC(N)=O)NC(=O)[C@H](CC(N)=O)NC1=O : what is it?
0.0319

====

Assay: Phase 1 open-label parallel-group PK study of IV vasopressin in healthy volunteers by LNPEP rs4869317 genotype
Format: in vivo, human
Conditions: both sexes, human, plasma, iv, 200 μU/kg/min, TT rs4869317 genotype (n = 12), 60 minute continuous IV infusion 200 μU/kg/min; read-out: Total Plasma Clearance (CL) Value
Observation Type: clearance (mL/min/kg)
Report the figure in mL/min/kg without appending any unit label.

For NC(=O)CC[C@@H]1NC(=O)[C@H](Cc2ccccc2)NC(=O)[C@H](Cc2ccc(O)cc2)NC(=O)[C@@H](N)CSSC[C@@H](C(=O)N2CCC[C@H]2C(=O)N[C@@H](CCCN=C(N)N)C(=O)NCC(N)=O)NC(=O)[C@H](CC(N)=O)NC1=O , what is its reported clearance?
13.8

====

Assay: Phase 1 open-label parallel-group PK study of IV vasopressin in healthy volunteers by LNPEP rs4869317 genotype
Format: in vivo, human
Conditions: both sexes, human, plasma, iv, 200 μU/kg/min, AA/AT genotype healthy volunteers (12 subjects), 200 μU/kg/min continuous IV infusion for 60 minutes; read-out: CL (Max)
Observation Type: clearance (mL/min/kg)
Kindly provide the numeric value in mL/min/kg only, without the unit symbol.

// lookup clearance for NC(=O)CC[C@@H]1NC(=O)[C@H](Cc2ccccc2)NC(=O)[C@H](Cc2ccc(O)cc2)NC(=O)[C@@H](N)CSSC[C@@H](C(=O)N2CCC[C@H]2C(=O)N[C@@H](CCCN=C(N)N)C(=O)NCC(N)=O)NC(=O)[C@H](CC(N)=O)NC1=O [vasopressin]
37.3

====

Test: Phase 1 open-label parallel-group PK study of IV vasopressin in healthy volunteers by LNPEP rs4869317 genotype
Type: in vivo, human
Settings: both sexes, human, plasma, iv, 200 uU/kg/min, AA/AT rs4869317 genotype (n = 12), 60 minute continuous IV infusion 200 μU/kg/min; read-out: Steady State Concentration at 60 minutes (Css)
Observation Type: level at 1 h (ng/mL)
Reply numerically in ng/mL, unit not repeated.

# lookup: level at 1 h of NC(=O)CC[C@@H]1NC(=O)[C@H](Cc2ccccc2)NC(=O)[C@H](Cc2ccc(O)cc2)NC(=O)[C@@H](N)CSSC[C@@H](C(=O)N2CCC[C@H]2C(=O)N[C@@H](CCCN=C(N)N)C(=O)NCC(N)=O)NC(=O)[C@H](CC(N)=O)NC1=O [vasopressin]
0.025

====

Test: Phase 1 open-label parallel-group PK study of IV vasopressin in healthy volunteers by LNPEP rs4869317 genotype
Format: in vivo, human
Details: both sexes, human, plasma, iv, 200 μU/kg/min, AA/AT genotype healthy volunteers (12 subjects), 200 μU/kg/min continuous IV infusion for 60 minutes; read-out: CL (Min)
Observation Type: clearance (mL/min/kg)
Give the number; mL/min/kg is assumed, so skip it.

# clearance lookup, item NC(=O)CC[C@@H]1NC(=O)[C@H](Cc2ccccc2)NC(=O)[C@H](Cc2ccc(O)cc2)NC(=O)[C@@H](N)CSSC[C@@H](C(=O)N2CCC[C@H]2C(=O)N[C@@H](CCCN=C(N)N)C(=O)NCC(N)=O)NC(=O)[C@H](CC(N)=O)NC1=O
9.1

====

Test: Phase 1 open-label parallel-group PK study of IV vasopressin in healthy volunteers by LNPEP rs4869317 genotype
Type: in vivo, human
Conditions: both sexes, human, plasma, iv, 200 μU/kg/min, TT genotype healthy volunteers (12 subjects), 200 μU/kg/min continuous IV infusion for 60 minutes; read-out: CL (Mean)
Observation Type: clearance (mL/min/kg)
# number only, unit mL/min/kg dropped from output

Fill blank: measured clearance of the molecule NC(=O)CC[C@@H]1NC(=O)[C@H](Cc2ccccc2)NC(=O)[C@H](Cc2ccc(O)cc2)NC(=O)[C@@H](N)CSSC[C@@H](C(=O)N2CCC[C@H]2C(=O)N[C@@H](CCCN=C(N)N)C(=O)NCC(N)=O)NC(=O)[C@H](CC(N)=O)NC1=O is ____.
13.8

====

Test: Phase 1 open-label parallel-group PK study of IV vasopressin in healthy volunteers by LNPEP rs4869317 genotype
Format: in vivo, human
Conditions: both sexes, human, plasma, iv, 200 uU/kg/min, AA/AT genotype healthy volunteers (12 subjects), plasma, 200 μU/kg/min continuous IV infusion for 60 minutes; read-out: Css (Mean), concentration at steady state
Observation Type: level at 1 h (ng/mL)
Expressed in ng/mL, but write only the number.

# input compound: NC(=O)CC[C@@H]1NC(=O)[C@H](Cc2ccccc2)NC(=O)[C@H](Cc2ccc(O)cc2)NC(=O)[C@@H](N)CSSC[C@@H](C(=O)N2CCC[C@H]2C(=O)N[C@@H](CCCN=C(N)N)C(=O)NCC(N)=O)NC(=O)[C@H](CC(N)=O)NC1=O [vasopressin] ; wanted: its level at 1 h
0.025
